System: SF-539 CNS
Assay: NCI-60 one-dose screen, 48 h
Settings: 10 µM unless noted
Method: Cells are grown in 96 well plates and exposed to the test compound for 48 hours. Compounds are tested at a single concentration, which is 10^-5 M for most compounds. The reported endpoint is percent growth (GI% or GIPRCNT), where numbers from 0 - 100% represent growth inhibition, and numbers from -100% - 0 represent cell death. For example, a value of 40 represents 60% growth inhibition. A value of 0 means no net growth occurred over the course of the experiment. […]
About 83,000 compounds went through this panel and 20% of them were active in at least one assay; those are over-represented in the sample as a whole. Active and inactive are the calls of the source. Rule for the calls: active = growth percent below 10; inactive = the rest.
Write down one outcome, taken from yes (1) (active), no (0) (inactive)

COc1ccc(/C=N\NC(=O)c2cnn(CC(O)c3ccccc3)c2N)cc1OCc1ccc(Cl)cc1 (stereo unspecified) | no (0)
COc1ccc(/C=N/N=C(/c2ccccc2)c2ccc3nc(-c4ccc(Cl)cc4)[nH]c3c2)cc1 | no (0)
CC(=O)N(O)CCCCCNC(=O)CCC(=O)N(O)CCCCCNC(=O)CCC(=O)N(O)CCCCCN(CCCCCCCCCC[P+](c1ccccc1)(c1ccccc1)c1ccccc1)CCCCCCCCCC[P+](c1ccccc1)(c1ccccc1)c1ccccc1 | yes (1)
CN1CCN(Cc2ccc(NC(=O)c3cncc(C#Cc4cnc5ccc(OCCCS(C)(=O)=O)nn45)c3)cc2C(F)(F)F)CC1 | yes (1)
CNC(=O)c1cc(N2CCc3cc(NC(=O)Nc4ccc(N5CCN(C)CC5)c(C(F)(F)F)c4)ccc32)ccn1 | no (0)
COc1ccc(/C=N/NC(=O)CSc2nc(-c3cnccn3)cc(-c3cccs3)c2C#N)cc1 | no (0)

Q: Please state the recorded outcome for this compound: O=C(N/N=C\c1ccc([N+](=O)[O-])cc1)c1ccc2nc(-c3ccc(Br)cc3)[nH]c2c1
Ans: no (0)

Q: Please give the result for COC(=O)CCCNCCCn1ccc2cc(NCc3cccc(-c4ccccc4)c3C)ccc21 too.
Ans: no (0)

Q: What do we get for CN(C)c1ccc(/C=N/Nc2nc(N/N=C/c3ccc(N(C)C)cc3)nc(N3CCCCC3)n2)cc1 ?
Ans: yes (1)

Q: # repeat for Clc1ccc2[nH]cc(-c3cncn3CCc3ccc4c(c3)OCO4)c2c1
Ans: no (0)

Q: What would you report for Cc1ccccc1NC(=O)Nc1nc2ccc([N+](=O)[O-])cc2s1 ?
Ans: no (0)

Q: Next record, please: C#CCOc1ccccc1C(OC(=O)c1ccccc1)C(=O)NC(C)(C)C(C)(C)C (stereo unspecified)
Ans: no (0)

Q: Note, next up: O=C(CSc1nc2ccccc2c(=O)n1-c1ccccc1)N/N=C/c1ccc(Oc2ccc(Cl)cc2)cc1
Ans: no (0)

Q: Try the compound CCN(CC)c1ccc(/C=N/NC(=O)c2ccc(NS(C)(=O)=O)cc2)c(O)c1
Ans: yes (1)

Q: Would you kindly repeat that for N#Cc1c(-c2cccs2)c(C#N)c(=O)n(Cc2nc3ccccc3[nH]2)c1N ?
Ans: no (0)

Q: Query COc1cc(/C=N\NC(=O)c2ccc3nc(-c4ccc(Br)cc4)[nH]c3c2)cc(OC)c1OC next
Ans: no (0)

Q: Also check C[C@]12CC[C@H]3[C@@H](CC=C4C[C@@H](O)CC[C@@]43C)[C@@H]1CC[C@@H]2[C@](C)(O)CCc1cccnc1
Ans: no (0)

Q: Now try CCOC(=O)c1c(NC(=O)c2ccc(C(F)(F)F)cc2)sc2c3c(ccc12)OCN(C)C3 .
Ans: yes (1)

Q: Please answer likewise for O=c1nc(Nc2ccc([N+](=O)[O-])cc2O)sc2ccccc12
Ans: yes (1)

Q: Item: CS(=O)(=O)c1nccc(-c2c(-c3cccc(OCc4ccc(Cl)c(C(F)(F)F)c4)c3)nc3sccn23)n1
Ans: no (0)

Q: CC[C@]12C=CCN3CC[C@]4(C(=C(C(=O)OC)C1)Nc1cc5c(cc14)[C@@H]1[C@H](O5)[C@@H](O)[C@@]4(CC)CC(C(=O)OC)=C5Nc6cc(O)ccc6[C@@]56CCN1C46)C32 (stereo partly specified) ?
Ans: yes (1)

Q: Do the same for CCOC(=O)c1cccc(NC2=C(Cl)C(=O)c3nc(C)ccc3C2=O)c1 please
Ans: no (0)

Q: Now this one: CN1CCN(CC#CCn2c3c(c4ccccc42)C[C@]2(C)[C@H]4CC=C5[C@@H]6CC(C)(C)CC[C@]6(C(=O)N6CCOCC6)CC[C@@]5(C)[C@]4(C)CC[C@H]2C3(C)C)CC1
Ans: no (0)

Q: Please answer likewise for Oc1ccc(-c2nc3ccc(/C(=N\N=C\c4ccc(Cl)cc4)c4ccccc4)cc3[nH]2)cc1
Ans: no (0)

Q: Now the compound CCCNNC(=O)c1ccc(-c2ccc(NC(=O)CCCCCCC(=O)N[C@H](C(=O)N3C[C@H](O)C[C@H]3C(=O)N[C@@H](C)c3ccc(-c4scnc4C)cc3)C(C)(C)C)cc2)cc1
Ans: no (0)

Q: Same question for Nc1nc(=O)n([C@H]2C[C@H](O)[C@@H](CO)O2)cc1C=O please.
Ans: no (0)
